Target: Serine/threonine-protein kinase AKT (Homo sapiens) (UniProt P31751+Q9Y243+P31749)
Sequence (P31749 whole entry, looked up): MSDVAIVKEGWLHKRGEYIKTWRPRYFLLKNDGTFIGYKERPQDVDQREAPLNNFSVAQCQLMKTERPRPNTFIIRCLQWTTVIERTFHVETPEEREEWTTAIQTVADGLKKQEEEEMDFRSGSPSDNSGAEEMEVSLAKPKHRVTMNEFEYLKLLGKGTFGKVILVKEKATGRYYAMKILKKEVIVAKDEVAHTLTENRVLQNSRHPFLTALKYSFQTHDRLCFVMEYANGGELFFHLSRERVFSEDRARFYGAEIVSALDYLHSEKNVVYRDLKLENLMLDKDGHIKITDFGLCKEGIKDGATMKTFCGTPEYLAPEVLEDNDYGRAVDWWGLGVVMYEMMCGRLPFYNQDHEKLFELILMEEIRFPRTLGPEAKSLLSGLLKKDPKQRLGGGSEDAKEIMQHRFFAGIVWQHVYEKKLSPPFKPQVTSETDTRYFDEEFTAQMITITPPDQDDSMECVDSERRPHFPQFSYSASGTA
Sequence (P31751 whole entry, looked up): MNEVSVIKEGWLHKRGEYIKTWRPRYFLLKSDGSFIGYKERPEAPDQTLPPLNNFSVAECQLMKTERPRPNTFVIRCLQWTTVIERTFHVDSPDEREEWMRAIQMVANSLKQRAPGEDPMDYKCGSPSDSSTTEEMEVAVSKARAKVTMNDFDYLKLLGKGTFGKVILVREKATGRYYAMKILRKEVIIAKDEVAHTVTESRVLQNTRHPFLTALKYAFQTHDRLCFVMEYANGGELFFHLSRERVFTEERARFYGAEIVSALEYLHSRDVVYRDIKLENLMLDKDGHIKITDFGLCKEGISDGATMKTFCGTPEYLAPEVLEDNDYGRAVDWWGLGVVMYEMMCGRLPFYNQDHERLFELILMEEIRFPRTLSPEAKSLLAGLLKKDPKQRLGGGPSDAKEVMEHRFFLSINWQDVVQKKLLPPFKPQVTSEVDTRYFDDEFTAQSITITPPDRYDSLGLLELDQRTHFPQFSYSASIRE
Sequence (Q9Y243 whole entry, looked up): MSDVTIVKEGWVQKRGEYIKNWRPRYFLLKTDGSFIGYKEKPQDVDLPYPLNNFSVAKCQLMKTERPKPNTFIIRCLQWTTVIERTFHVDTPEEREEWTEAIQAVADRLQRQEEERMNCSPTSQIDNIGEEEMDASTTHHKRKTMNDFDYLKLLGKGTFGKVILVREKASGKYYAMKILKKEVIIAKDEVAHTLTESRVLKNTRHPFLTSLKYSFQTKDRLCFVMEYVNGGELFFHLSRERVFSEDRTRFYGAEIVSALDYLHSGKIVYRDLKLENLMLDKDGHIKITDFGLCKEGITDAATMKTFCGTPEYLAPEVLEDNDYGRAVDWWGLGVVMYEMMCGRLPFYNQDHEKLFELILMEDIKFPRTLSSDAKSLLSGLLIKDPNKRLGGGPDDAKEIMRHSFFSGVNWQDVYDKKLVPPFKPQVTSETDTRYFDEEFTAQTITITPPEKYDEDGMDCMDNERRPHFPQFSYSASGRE
Assay: Inhibition of Akt signaling pathway in human HT1080 cells assessed as fold change in phosphorylated Akt level at 10 uM incubated for 24 hrs by immunoblot assay (reference value: 1)
Format: cell-based
Details: HT-1080
readout: fold change (FC)
I only need the number, thanks.

Worked cases, answers included:
CC(C)=CCC[C@]1(C)/C=C/[C@@H](OC(=O)C=C(C)C)[C@]2(C)O[C@@H]2CC/C(C=O)=C\C1 :: 1.05
C=C1CC[C@H]2O[C@@]2(C)[C@H](OC(=O)C=C(C)C)/C=C/[C@@](C)(CCC=C(C)C)CC1=O :: 0.11
C=C1CC[C@H]2O[C@@]2(C)[C@H](OC(=O)C=C(C)C)/C=C/[C@@](C)(CCC=C(C)C)C[C@H]1O :: 0.95

(Q) Form field - read-out: fold change (FC); system: Serine/threonine-protein kinase AKT (Homo sapiens) (UniProt P31751+Q9Y243+P31749); submitted item: C=C(I)CC[C@H]1O[C@@]1(C)[C@@H](/C=C/[C@](C)(CC=O)CCC=C(C)C)OC(=O)C=C(C)C
(A) 0.91

(Q) Repeat with CC(C)=CCC[C@]1(C)/C=C/[C@@H](OC(=O)C=C(C)C)[C@]2(C)O[C@@H]2CC/C(CO)=C\C1
(A) 0.98

---

Test: Antiproliferative activity against human ES2 cells assessed as reduction in cell viability incubated for 72 hrs by MTT assay
Assay type: functional, cell-based
Conditions: ES-2, 72 h
# pIC50 values compiled below
Reminder that pIC50 is minus the log10 of a molar concentration.

Worked cases, answers included:
CC(C)=CCC[C@]1(C)/C=C/[C@@H](OC(=O)C=C(C)C)[C@]2(C)O[C@@H]2CC/C(C=O)=C\C1 :: 5.12
C=C1CC[C@H]2O[C@@]2(C)[C@H](OC(=O)C=C(C)C)/C=C/[C@@](C)(CCC=C(C)C)CC1=O :: 5.37

Now for a further compound.
(Q) Data request, read-out pIC50, for CC(C)=CCC[C@]1(C)/C=C/[C@@H](OC(=O)C=C(C)C)[C@]2(C)O[C@@H]2CC/C(CO)=C\C1
(A) 5.54

Origin of measurements: ChEMBL document CHEMBL4610012
